Values were extracted from ChEMBL document CHEMBL3864157.

- Tested on: Staphylococcus aureus
- ASSAY PROTOCOL: Antibacterial activity against Staphylococcus aureus Newman
- Assay type: functional
Kindly state MIC for each of the entries shown.

Here's what some known entries look like.
COMPOUND: CC(C)c1cc2c(cc1C(=NO)c1ccc(Cl)cc1Cl)[C@@]1(C)CCC[C@@](C)(C(=O)O)[C@@H]1CC2
MIC: 1.56 to 3.13 µg/mL

COMPOUND: CON=C(c1ccccc1)c1cc2c(cc1C(C)C)CC[C@H]1[C@](C)(C(=O)O)CCC[C@]21C
MIC: 5 µg/mL

COMPOUND: CN(C)[C@@H]1C(O)=C(C(N)=O)C(=O)[C@@]2(O)C(O)=C3C(=O)c4c(O)cccc4[C@@](C)(O)[C@H]3C[C@@H]12 [TETRACYCLINE]
MIC: < 0.2 µg/mL

Your task in this section: give MIC for each listed record.
1. C=CCO/N=C(\C)c1cc2c(cc1C(C)C)CC[C@H]1[C@](C)(C(=O)O)CCC[C@]21C
2. C=CCON=C(c1cc2c(cc1C(C)C)CC[C@H]1[C@](C)(C(=O)O)CCC[C@]21C)c1ccccc1C(F)(F)F
3. CCC(=NOCc1ccccc1)c1cc2c(cc1C(C)C)CC[C@H]1[C@](C)(C(=O)O)CCC[C@]21C
4. CC(C)c1cc2c(cc1C(=NO)c1cccs1)[C@@]1(C)CCC[C@@](C)(C(=O)O)[C@@H]1CC2

30 to 40 µg/mL
0.78 to 1.56 µg/mL
> 50 µg/mL
6.25 to 12.5 µg/mL
